ASSAY_EXPLANATION: Absolute bioavailability of drospirenone after oral administration
Type: in vivo, women
MEASUREMENT_SETUP: human, in vivo; oral administration of a microcrystalline suspension containing 3.13 mg drospirenone to 6 postmenopausal women
PROPERTY_LABEL: bioavailability (%)
One number for each entry, in %.

Ask: Give the measured bioavailability of C[C@]12CCC(=O)C=C1[C@@H]1C[C@@H]1[C@H]1[C@@H]3[C@@H]4C[C@@H]4[C@@]4(CCC(=O)O4)[C@@]3(C)CC[C@@H]12 [drospirenone] .
Reply: 85
